# Tested on: AsPC-1 cells (K-Ras G12D)
# protocol.description: 2D cell growth inhibition assay, AsPC-1
# Format: cell-based
# reported.conditions: Homo sapiens, ASPC1, 144 h, AsPC-1, K-Ras G12D, 6 days, absolute IC50
measured.attribute: IC50

molecule	endpoint.value
C#Cc1c(F)ccc2cc(O)cc(-c3ncc4c(N5CCCOCC5)nc(OC[C@H]5CCCN5C)nc4c3F)c12 [Compound 2]	293 nM
C#Cc1c(F)ccc2cc(O)cc(-c3ncc4c(N5CCOC[C@@H](F)C5)nc(OC[C@@]56CCCN5C[C@H](F)C6)nc4c3F)c12 (single isomer, unassigned) [Compound 12A]	301 nM
Oc1cc(-c2ncc3c(N4CCCOCC4)nc(OC[C@@]45CCCN4C[C@H](F)C5)nc3c2F)c2c(F)c(F)ccc2c1 [Compound 40, trifluoroacetic acid]	91.3 nM
C#Cc1c(F)ccc2cc(O)cc(-c3ccc4c(N5CCCOCC5)nc(OCC5(CN6CCOCC6)CC5)nc4c3F)c12 [Compound 20, trifluoroacetic acid]	538 nM
C#Cc1cccc2cc(O)cc(-c3ncc4c(N5CCCOCC5)nc(OC[C@@]56CCCN5C[C@H](F)C6)nc4c3F)c12 [Compound 82]	226 nM
C#Cc1c(F)ccc2cc(O)cc(-c3c(C(F)(F)F)cc4c(N5CCCOCC5)nc(OC[C@@]56CCCN5C[C@H](F)C6)nc4c3F)c12 [Compound 37]	629 nM
